These entries and their values trace back to the supplement of paper PMC10567573.

B1: RPS21 (parent)
chain: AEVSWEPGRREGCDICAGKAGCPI

- Variants of: B1
- method: protein stability index of a GFP-peptide fusion (GPS, HEK-293T) (PSI 1-6); higher = more stable;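 further: lentivirally expressed fusions sorted by FACS into six bins by GFP to DsRed ratio, PSI derived from sequencing read proportions per bin multiplied by bin number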
- measurement_conditions: c terminus: a fixed tail appended
observable: protein stability index
Response field accepts a number only; no unit should be typed.

Form field: reported protein stability index of AEVSWEPGRREGCDIQAGKAGCPI
4.37

Thanks! And AEVSWEPGRREGCDICAGKAGCVI ?
2.18

Try the variant AEVSWEPGRREGCDICAGKNGCPI
3.26

And the next one, SEVSWEPGRREGCDICAGKAGCPI ?
2.71

Field entry: AEVSWEPGRRHGCDICAGKAGCPI
3.53

What do you have for AEVSWEPGRREGCDICAMKAGCPI ?
3.06

Then this variant: AEASWEPGRREGCDICAGKAGCPI
4.16

# repeat for AEGSWEPGRREGCDICAGKAGCPI
4

Also MEVSWEPGRREGCDICAGKAGCPI , if possible.
3.37

Check AEVSWEPGRREGCDICAGKAGCTI too.
2.27

Let us now turn to AEMSWEPGRREGCDICAGKAGCPI
1.9

// repeat for AEVSWEPGRLEGCDICAGKAGCPI and report
2.84

Now try AEVSWEPGRREGCDIIAGKAGCPI .
3.69

Then AEVSWEEGRREGCDICAGKAGCPI ?
4

Please give the result for AEVSWEPGRREGCDGCAGKAGCPI too.
4.06

Request: VEVSWEPGRREGCDICAGKAGCPI
1.36

Cool, now AEVSWEPGRREGCDICAGKAGCEI
3.1

And what about the variant AEVSWEPGRREGCDICAGKIGCPI ?
2.53

Same lookup for AEVSWEFGRREGCDICAGKAGCPI , please.
2.21

Follow-up entry: AEVSWECGRREGCDICAGKAGCPI
2.69

And AEVSWEPGRREGCDRCAGKAGCPI ?
2.96

Again, but for AEVSWEPGRREGRDICAGKAGCPI
4.04
